system: Rattus norvegicus; assay: Antiallergic activity of 10 mg/kg intravenous dose of compound was assessed by the inhibition of passive paw anaphylaxis in rats; format: functional
MEASUREMENT TYPE: inhibition in vivo at 10 mg/kg (%)
Give just the number in %; leave the unit off.

CCCCn1c(=O)[nH]c2c(ncn2C2O[C@H](CO)[C@@H](O)[C@H]2O)c1=N (some centres undefined): 35
Cn1c(=O)[nH]c2c(ncn2C2O[C@@H]3COP(=O)(O)O[C@@H]3[C@@H]2O)c1=N (some centres undefined): 14
N=c1c2ncn(C3O[C@H](CO)[C@@H](O)[C@H]3O)c2[nH]c(=O)n1-c1ccccc1 (some centres undefined): 30

Continue with the compound presented below.
In: Answer with the recorded inhibition in vivo at 10 mg/kg of `Cn1c(=N)c2ncn3c2n(c1=O)C[C@H]1OC3[C@H](O)[C@@H]1O.I` only.
Out: 45
